Tested on: HCV genotype 3a wild-type transient replicon
Assay: genotype 3a wild-type transient replicon assay
Assay type: cell-based, hepatitis C virus (HCV)
Settings: Hepatitis C virus
pEC50: −log10 of the molar value.
assay-endpoint: pEC50

Answered examples (2):
record-smiles	experimental-value
CC(C)(C)[C@@H]1NC(=O)O[C@@H]2CCC[C@H]2OC/C=C/C(F)(F)c2nc3ccccc3nc2O[C@@H]2C[C@@H](C(=O)N[C@]3(C(=O)NS(=O)(=O)C4(C)CC4)C[C@H]3C(F)F)N(C2)C1=O	> 8.00
C=C[C@@H]1C[C@]1(NC(=O)[C@@H]1C[C@@H]2CN1C(=O)[C@H](C(C)(C)C)NC(=O)O[C@@H]1CCC[C@H]1OC/C=C/C(F)(F)c1nc3ccccc3nc1O2)C(=O)NS(=O)(=O)C1(C)CC1	> 8.00

Moving on to another compound below.
(Q) Quick one: pEC50 for C=C[C@@H]1C[C@]1(NC(=O)[C@@H]1C[C@@H]2CN1C(=O)[C@H](C(C)(C)C)NC(=O)O[C@@H]1CCC[C@H]1OC/C=C/C(F)(F)c1nc3ccccc3nc1O2)C(=O)NS(=O)(=O)C1CC1 ?
(A) 7.00 to 8.00
